- target.of.assay: C-terminal-binding protein 1 (Homo sapiens)
- assay.explanation: qHTS for Inhibitors of the Phosphatase Activity of Eya2: Carboxyl-terminal binding protein (CtBP) Counterscreen for Cherry-picked Compounds; also: nearly all actives have a fitted effect of over 65% in size
- recorded.conditions: purified protein-protein binding, AlphaScreen, 3 h; series mostly up to 46.1 µM
Hit rate of the full screen: of about 1,300 compounds, about 420 (32%) were called active. Not shown: some 32% with an inconclusive outcome. Calls follow the shape of the dose curve; as a rule, active = well fitted inhibition curve with a large enough effect; inconclusive = small, poorly fitted or top-dose-only effect; inactive = no such curve, though single readings can be large or run the other way. This is one part of the list.
Entry note: the call must match one of active, inactive

CSCCC(=O)Nc1nc(-c2ccccn2)cs1 ... active
CCN1C(=O)/C(=C2/C=Cc3ccccc3N2CC)SC1=S ... active
COc1ccc(-c2c(N)cnc(C(=O)O)c2C)c(OCc2ccccc2)c1OC ... active
C/C(N)=C(/C#N)C(=O)CSc1nnc(Nc2cccc(C)c2)s1 ... inactive

As a next step, examine the molecule that follows.
Hey, what did the test say about O=C(CN1C(=O)c2ccccc2C1=O)Nc1nc(-c2cccc([N+](=O)[O-])c2)cs1 ?
inactive

###

- target.of.assay: C-terminal-binding protein 1 (Homo sapiens) (UniProt Q13363)
- assay.explanation: qHTS for Inhibitors of the Phosphatase Activity of Eya2: Carboxyl-terminal binding protein (CtBP) Counterscreen for Cherry-picked Compounds; also: nearly all actives have a fitted effect of over 65% in size
- recorded.conditions: purified protein-protein binding, AlphaScreen, 3 h; series mostly up to 46.1 µM
The whole screen tested about 1,300 compounds, of which about 420 (32%) were called active. Inconclusive results (about 32%) are left out. The call rests on the fitted dose curve; in most records, active means well fitted inhibition curve with a large enough effect; inconclusive means small, poorly fitted or top-dose-only effect; inactive means no such curve, though single readings can be large or run the other way. The list shows a part of the results.
Entry note: the call must match one of YES (active), NO (inactive)

Field: example entries. Status: answers known.
C[n+]1ccc(/C=C/c2cc[n+](C)c3ccccc23)c2ccccc21 ... YES
COc1cc(N(C(C)=O)c2ccc(O)c(C(=O)O)c2)c2ncccc2c1 ... YES
COc1ccccc1CNC(=O)CSc1ccc(-c2ccccn2)nn1 ... YES
CC(=O)Nc1ccc(S(=O)(=O)O)c2cc(S(=O)(=O)O)c(N=Nc3ccc(N=Nc4ccc(S(=O)(=O)O)cc4)c4ccc(S(=O)(=O)O)cc34)c(O)c12 ... YES

As a next step, examine the molecule that follows.
Hey, what did the test say about Cc1cc2nc(-c3ccco3)c(Cc3cccc(F)c3)n2c(C)c1Br ?
NO

###

- target.of.assay: C-terminal-binding protein 1 (Homo sapiens)
- assay.explanation: qHTS for Inhibitors of the Phosphatase Activity of Eya2: Carboxyl-terminal binding protein (CtBP) Counterscreen for Cherry-picked Compounds; also: nearly all actives have a fitted effect of over 65% in size
- recorded.conditions: purified protein-protein binding, AlphaScreen, 3 h; series mostly up to 46.1 µM
Out of some 1,300 compounds screened, about 420 (32%) were called active. Inconclusive results (about 32%) are left out. Calls come from the whole dose curve; as a rule, active = well fitted inhibition curve with a large enough effect; inconclusive = small, poorly fitted or top-dose-only effect; inactive = no such curve, though single readings can be large or run the other way. This is one part of the list.
Entry note: the call must match one of active, inactive

Field: example entries. Status: answers known.
CCc1cnc2ccccc2c1/C=C/c1ccc(N(C)C)cc1 ... active
Cc1n[nH]c(=S)n(NC(=O)CC(=O)Nn2c(=S)[nH]nc(C)c2=O)c1=O ... active
O=[N+]([O-])c1ccc(/C=C2\C=Cc3ccccc32)cc1 ... active

Hey, what did the test say about Cc1cccc(C)c1Nc1c(-c2ccccn2)nc2ccccn12 ?
active

Hey, what did the test say about O=C(O)C1=NN(c2cc(Cl)c(S(=O)(=O)O)cc2Cl)C(=O)C1 ?
inactive

###

- target.of.assay: C-terminal-binding protein 1 (Homo sapiens) (UniProt Q13363)
- assay.explanation: qHTS for Inhibitors of the Phosphatase Activity of Eya2: Carboxyl-terminal binding protein (CtBP) Counterscreen for Cherry-picked Compounds; also: nearly all actives have a fitted effect of over 65% in size
- recorded.conditions: purified protein-protein binding, AlphaScreen, 3 h; series mostly up to 46.1 µM
Screen size: about 1,300 compounds; about 420 (32%) were called active. Roughly 32% stayed inconclusive and do not appear here. Calls follow the shape of the dose curve; as a rule, active = well fitted inhibition curve with a large enough effect; inconclusive = small, poorly fitted or top-dose-only effect; inactive = no such curve, though single readings can be large or run the other way. The list shows a part of the results.
Entry note: the call must match one of label 1 (active), label 0 (inactive)

O=S(=O)(c1ccccc1)[C@@]1(c2ccccc2)C[C@@H]2ON=C(c3cccc(-c4ccccc4)c3)[C@@H]2C1 ... label 0
O=C(O)c1c(C(=O)N2N=C3/C(=C/c4ccccc4)CCCC3C2c2ccccc2)cccc1[N+](=O)[O-] (configuration not stated) ... label 0
Oc1c(Br)cc(Br)cc1CNc1cccc2cccnc12 ... label 1
CCOC(=O)C1=C(N)Oc2c(oc(CO)cc2=O)C1c1ccc(Cl)cc1 (configuration not stated) ... label 0

Hey, what did the test say about CCCOc1ccc(C2C3=C(Nc4nc(N)[nH]c(=O)c42)c2ccccc2C3=O)cc1 (configuration not stated) ?
label 1

Hey, what did the test say about CCN(CC)c1ccc(/C=C2\CCC(/C=C(\C#N)C(=O)Nc3ccccc3F)=C2N2CCOCC2)cc1 ?
label 1
